# Test name: first dissolution test in DMSO or water
# Experimental context: first dissolution test; amount for a 3M solution in 0.5 mL; water, up to 15000 μL
Reported property: Total volume of water for dissolving the p-TSA derivatives

Here is how some compounds turned out for Total volume of water for dissolving the p-TSA derivatives.
Cc1ccc(S(=O)(=O)N2CC(C(=O)NN)C2)cc1 :: insoluble in 15000 μL
Cc1ccc(S(=O)(=O)N2CC(CO)C2)cc1 :: insoluble in 15000 μL
NS(=O)(=O)c1ccc(C(=O)O)cc1 :: insoluble in 15000 μL
Cc1ccc(S(=O)(=O)N2CC(=O)C2)cc1 :: insoluble in 15000 μL
Cc1ccc(S(=O)(=O)N[C@@H](C)C(=O)O)cc1 :: insoluble in 15000 μL
Cc1ccc(S(=O)(=O)NCCN(C)C)cc1.Cl :: 1000 µL
Cc1ccc(S(=O)(=O)NC(C)CO)cc1 (centres unmarked) :: insoluble in 15000 μL
Cc1ccc(S(=O)(=O)NC(C)(CO)CO)cc1 :: insoluble in 15000 μL
Cc1ccc(S(=O)(=O)N2CC(C(=O)[O-])C2)cc1.[Na+] :: 750 µL
CCOC(=O)NS(=O)(=O)c1ccc(C)cc1 [PTSA014] :: insoluble in 15000 μL

What value of measured Total volume of water for dissolving the p-TSA derivatives is listed for `Cc1ccc(S(=O)(=O)N2CC(C#N)C2)cc1` ?
insoluble in 15000 μL

What value of measured Total volume of water for dissolving the p-TSA derivatives is listed for `Cc1ccc(S(=O)(=O)N2CC(O)C2)cc1` ?
insoluble in 15000 μL

What value of measured Total volume of water for dissolving the p-TSA derivatives is listed for `Cc1ccc(S(=O)(=O)N2CC(C(=O)NO)C2)cc1` ?
insoluble in 15000 μL

What value of measured Total volume of water for dissolving the p-TSA derivatives is listed for CCOC(=O)NS(=O)(=O)c1ccc(C)cc1 [PTSA015] ?
500 µL

What value of measured Total volume of water for dissolving the p-TSA derivatives is listed for `Cc1ccc(S(=O)(=O)N2CC(CN)C2)cc1.Cl` ?
4500 µL

What value of measured Total volume of water for dissolving the p-TSA derivatives is listed for `Cc1ccc(S(=O)(=O)N2CC(N)C2)cc1.Cl` ?
10000 µL

What value of measured Total volume of water for dissolving the p-TSA derivatives is listed for `Cc1ccc(S(=O)(=O)NCCCO)cc1` ?
insoluble in 15000 μL
